Each recorded value in this set is attributed to ChEMBL document CHEMBL6178021.

test system: MDR1 (human); experiment: Apparent permeability across basolateral to apical side in MDCK transfected with human MDR1 cells incubated for 1 hr by LC-MS analysis; settings: dog, MDCK-MDR1
Listed here: items and their measured Papp B→A at 1 h.
measurement_type: Papp B→A at 1 h (×10⁻⁶ cm/s)

CCC1=C(CC)/C(=C/NC23C[C@H]4C[C@@H](C2)C[C@@H](C3)C4)N=C1c1ccc(-c2ccccc2)[nH]1	0.002
CCc1ccc(C2=N/C(=C\NC3CCCCCC3)C(OC)=C2OC)[nH]1	0.16
CCC1=C(CC)/C(=C/NC23C[C@H]4C[C@@H](C2)C[C@@H](C3)C4)N=C1c1ccc(Cl)[nH]1	0.074
CCc1ccc(C2=N/C(=C\NC3CCCCC3)C(OC)=C2OC)[nH]1	0.49
CCC1=C(CC)/C(=C/NC2CCCCCCC2)N=C1c1ccc(Br)[nH]1	0.066
CCc1ccc(C2=N/C(=C\NC3CCCCCC3)C3=C2CCCC3)[nH]1	0.003
CCC1=C(CC)/C(=C/NC2CCCCCCC2)N=C1c1ccc(-c2ccc(OC)cc2)[nH]1	0.012
CCC1=C(CC)/C(=C/NC2CCCCCC2)N=C1c1ccc(CC)[nH]1	0.012
CC1=C(C)/C(=C/NC2CCCCC2)N=C1c1ccc(C)[nH]1	0.37

----------
Each entry below carries its reported IC50.
system: Plasmodium falciparum; test: microbe, parasite or virus in culture; conditions: Dd2, 72 h
Description: Antiplasmodial activity against asexual blood-stage Plasmodium falciparum Dd2 using 2% haematocrit and 0.2% parasitemia assessed as reduction in fluorescence measured after 72 hrs by Malaria SYBR Green I-based Fluorescence (MSF) assay
measurement_type: IC50 (nM)

C(/NC12C[C@H]3C[C@@H](C1)C[C@@H](C2)C3)=C1/N=C(c2ccc[nH]2)C2=C1OCCO2	8.4
CCC1=C(CC)/C(=C/NC2CCCCCCC2)N=C1c1ccc(C)[nH]1	5.75
CCc1ccc(C2=N/C(=C\NC3CCCCC3)C(OC)=C2OC)[nH]1	15.5
CCC1=C(CC)/C(=C/NC2CCCCCC2)N=C1c1ccc(-c2ccccc2)[nH]1	30.2
CCC1=C(CC)/C(=C/NC2CCCCC2)N=C1c1ccc(Cc2ccc(OC)cc2)[nH]1	7.25
CCc1ccc(C2=N/C(=C\NC3CCCCC3)C3=C2OCCO3)[nH]1	11.9
CCC1=C(CC)/C(=C/N[C@H]2CC[C@H](C(=O)OC)CC2)N=C1c1ccc[nH]1	299
FC(F)(F)[C@H]1CC[C@H](N/C=C2\N=C(c3ccc[nH]3)C3=C2CCCC3)CC1	49.6
CCC1=C(C)/C(=C/NC2CCCCCCC2)N=C1c1ccc(C)[nH]1	3.43
COc1ccc(Cc2ccc(C3=N/C(=C\NC4CCCCC4)C4=C3CCCC4)[nH]2)cc1	12.2
C[C@H]1CC[C@H](N/C=C2\N=C(c3ccc[nH]3)C3=C2CCCC3)CC1	2.36
[2H]C([2H])(C)c1ccc(C2=N/C(=C\NC3CCCCCC3)C(C)=C2C)[nH]1	5.91
CCC1=C(CC)/C(=C/NC2CCCCC2)N=C1c1ccc(-c2ccc(OC)cc2)[nH]1	41.1
CCC1=C(CC)/C(=C/NC2CCCCC2)N=C1c1ccc[nH]1	115
COc1ccc(Cc2ccc(C3=N/C(=C\NC4CCCCCC4)C4=C3OCCO4)[nH]2)cc1	21.3

----------
test system: Plasmodium falciparum; experiment: Anti-plasmodial activity against Plasmodium falciparum Dd2 assessed as growth inhibition measured after 72 hrs by Malaria SYBR Green I-based Fluorescence (MSF) assay; type: functional, organism-based; details: Dd2, 72 h
measurement_type: IC50 (nM)

CCC1=C(CC)/C(=C/NC2CCCCC2)N=C1c1ccc(C)[nH]1	13.9

----------
tested on: HepG2; experiment: Cytotoxicity against human HepG2 cells assessed as cell viability measured after 48 hrs by MTT assay; assay type: toxicity, cell-based; details: hepg2
pIC50: −log10 of the molar value.
Parameter: pIC50. Scope: all listed entries.
measurement_type: pIC50

CCc1ccc(C2=N/C(=C\NC3CCCCCCC3)C(C)=C2C)[nH]1	5.70
CCC1=C(CC)/C(=C/NC2CCCCC2)N=C1c1ccc(Cc2ccc(OC)cc2)[nH]1	5.11
COC1=C(OC)/C(=C/NC23C[C@H]4C[C@@H](C2)C[C@@H](C3)C4)N=C1c1ccc[nH]1	5.33
COc1ccc(Cc2ccc(C3=N/C(=C\NC4CCCCCC4)C4=C3CCCC4)[nH]2)cc1	5.87
[2H]C([2H])(C)c1ccc(C2=N/C(=C\NC3CCCCCC3)C(C)=C2C)[nH]1	5.18
CCC1=C(CC)/C(=C/NC2CCCCCCC2)N=C1c1ccc(-c2ccc(OC)cc2)[nH]1	5.30
COC1=C(OC)/C(=C/NC2CCCCCC2)N=C1c1ccc[nH]1	4.78
CCC1=C(CC)/C(=C/NC23C[C@H]4C[C@@H](C2)C[C@@H](C3)C4)N=C1c1ccc(Cl)[nH]1	5.35
CC1=C(C)/C(=C/NC2CCCCCC2)N=C1c1ccc(C)[nH]1	5.17

----------
assay: Metabolic stability in mouse liver microsomes assessed as half life measured up to 60 mins by LC/MS analysis; format: ADME, Microsome
measurement_type: half-life

COc1ccc(Cc2ccc(C3=N/C(=C\NC4CCCCCC4)C4=C3OCCO4)[nH]2)cc1	> 60 min
COC(=O)[C@H]1CC[C@H](N/C=C2\N=C(c3ccc[nH]3)C3=C2CCCC3)CC1	10.3 min
COc1ccc(Cc2ccc(C3=N/C(=C\NC4CCCCCC4)C4=C3CCCC4)[nH]2)cc1	> 60 min
C[C@H]1CC[C@H](N/C=C2\N=C(c3ccc[nH]3)C3=C2CCCC3)CC1	33 min
CCc1ccc(C2=N/C(=C\NC3CCCCCC3)C3=C2CCCC3)[nH]1	> 60 min
CCC1=C(CC)/C(=C/NC23C[C@H]4C[C@@H](C2)C[C@@H](C3)C4)N=C1c1ccc(Cc2ccc(OC)cc2)[nH]1	> 60 min
CCC1=C(CC)/C(=C/NC2CCCCCC2)N=C1c1ccc(Cl)[nH]1	> 60 min
CCC1=C(CC)/C(=C/NC23C[C@H]4C[C@@H](C2)C[C@@H](C3)C4)N=C1c1ccc(CC)[nH]1	50.3 min
COc1ccc(C2=C(c3ccc(OC)cc3)/C(=C/NC34C[C@H]5C[C@@H](C3)C[C@@H](C4)C5)N=C2c2ccc[nH]2)cc1	> 60 min
CCC1=C(CC)/C(=C/NC2CCCCCCC2)N=C1c1ccc(Cl)[nH]1	> 60 min
CCC1=C(CC)/C(=C/NC2CCCCCC2)N=C1c1ccc(CC)[nH]1	> 60 min
CCC1=C(CC)/C(=C/NC23C[C@H]4C[C@@H](C2)C[C@@H](C3)C4)N=C1c1ccc(-c2ccc(OC)cc2)[nH]1	12.1 min
CCC1=C(CC)/C(=C/NC2CCCCC2)N=C1c1ccc(Br)[nH]1	> 60 min
[2H]C([2H])(C)c1ccc(C2=N/C(=C\NC3CCCCCC3)C(C)=C2C)[nH]1	> 60 min
CCC1=C(CC)/C(=C/NC2CCCCCCC2)N=C1c1ccc(Br)[nH]1	> 60 min
CCC1=C(C)/C(=C/NC2CCCCCC2)N=C1c1ccc[nH]1	10.1 min
CC1=C(C)/C(=C/NC2CCCCC2)N=C1c1ccc(C)[nH]1	37.2 min
CCC1=C(C)/C(=C/NC23C[C@H]4C[C@@H](C2)C[C@@H](C3)C4)N=C1c1ccc(CC)[nH]1	> 60 min

----------
test system: MDR1 (human); test: Efflux ratio, ratio of apparent permeability across apical to basolateral side over basolateral to apical side in MDCK transfected with human MDR1 cells incubated for 1 hr by LC-MS analysis; conditions: dog
Each record's class is read off its efflux ratio at 1 h using these ranges: band 1 (below 0.2), band 2 (0.2 to below 0.6), band 3 (0.6 or more)

CCC1=C(CC)/C(=C/NC23C[C@H]4C[C@@H](C2)C[C@@H](C3)C4)N=C1c1ccc(C)[nH]1	band 2
COC1=C(OC)/C(=C/NC23C[C@H]4C[C@@H](C2)C[C@@H](C3)C4)N=C1c1ccc[nH]1	band 1
CCC1=C(CC)/C(=C/NC2CCCCCC2)N=C1c1ccc(Cl)[nH]1	band 2
FC(F)(F)[C@H]1CC[C@H](N/C=C2\N=C(c3ccc[nH]3)C3=C2CCCC3)CC1	band 2
CCC1=C(CC)/C(=C/N[C@H]2CC[C@H](C(=O)OC)CC2)N=C1c1ccc[nH]1	band 3
COc1ccc(C2=C(c3ccc(OC)cc3)/C(=C/NC34C[C@H]5C[C@@H](C3)C[C@@H](C4)C5)N=C2c2ccc[nH]2)cc1	band 1
CCC1=C(CC)/C(=C/NC23C[C@H]4C[C@@H](C2)C[C@@H](C3)C4)N=C1c1ccc(Br)[nH]1	band 2
CCC1=C(CC)/C(=C/N[C@H]2CC[C@H](C(F)(F)F)CC2)N=C1c1ccc[nH]1	band 2
CCC1=C(CC)/C(=C/NC2CCCCC2)N=C1c1ccc(Br)[nH]1	band 1
CCC1=C(CC)/C(=C/NC23C[C@H]4C[C@@H](C2)C[C@@H](C3)C4)N=C1c1ccc(Cc2ccc(OC)cc2)[nH]1	band 2
CCc1ccc(C2=N/C(=C\NC3CCCCC3)C3=C2OCCO3)[nH]1	band 3
CCC1=C(CC)/C(=C/NC23CC4CC(CC(C4)C2)C3)N=C1c1cc2ccccc2[nH]1	band 1
COC(=O)[C@H]1CC[C@H](N/C=C2\N=C(c3ccc[nH]3)C3=C2CCCC3)CC1	band 3
CCC1=C(CC)/C(=C/NC23C[C@H]4C[C@@H](C2)C[C@@H](C3)C4)N=C1c1ccc(-c2ccc(OC)cc2)[nH]1	band 2
CCC1=C(CC)/C(=C/NC23C[C@H]4C[C@@H](C2)C[C@@H](C3)C4)N=C1c1ccc(CC)[nH]1	band 3
